Conditions: 333.15 K; 100.9 kPa; Liquid; Vibrating tube method
Property: mass density (kg/m3)
Give just the number in kg/m3; leave the unit off.

Guide cases for mass density, answers given:
1. CC(C)n1cc[n+](C)c1.O=S(=O)([N-]S(=O)(=O)C(F)(F)C(F)(F)F)C(F)(F)C(F)(F)F : 1514
2. C[n+]1ccn(C(C)(C)C)c1.O=S(=O)([N-]S(=O)(=O)C(F)(F)F)C(F)(F)F : 1413.8
3. C[n+]1ccn(C(C)(C)C)c1.O=S(=O)([N-]S(=O)(=O)C(F)(F)C(F)(F)F)C(F)(F)C(F)(F)F : 1488.6

Next item in the queue.
Recorded mass density of `CC(C)[n+]1ccn(C)c1.O=S(=O)([N-]S(=O)(=O)C(F)(F)F)C(F)(F)F` , please. 1442.9

----------
Conditions: 293.2 K; 100.9 kPa; Liquid; Cone and plate viscometry
Property: viscosity (mPa·s)
Give just the number in mPa·s; leave the unit off.

Guide cases for viscosity, answers given:
1) C[n+]1ccn(C(C)(C)C)c1.O=S(=O)([N-]S(=O)(=O)C(F)(F)F)C(F)(F)F : 167.3
2) CC(C)[n+]1ccn(C)c1.O=S(=O)([N-]S(=O)(=O)C(F)(F)F)C(F)(F)F : 58.3
3) C[n+]1ccn(C(C)(C)C)c1.O=S(=O)([N-]S(=O)(=O)C(F)(F)C(F)(F)F)C(F)(F)C(F)(F)F : 571.1

Recorded viscosity of `CC(C)n1cc[n+](C)c1.O=S(=O)([N-]S(=O)(=O)C(F)(F)C(F)(F)F)C(F)(F)C(F)(F)F` , please. 172.6

----------
Conditions: 343.15 K; 100.9 kPa; Liquid; Vibrating tube method
Quick reference for mass density among some molecules
Give just the number in kg/m3; leave the unit off.

1) C[n+]1ccn(C(C)(C)C)c1.O=S(=O)([N-]S(=O)(=O)C(F)(F)F)C(F)(F)F : 1404.5
2) CC(C)[n+]1ccn(C)c1.O=S(=O)([N-]S(=O)(=O)C(F)(F)F)C(F)(F)F : 1433.4
3) C[n+]1ccn(C(C)(C)C)c1.O=S(=O)([N-]S(=O)(=O)C(F)(F)C(F)(F)F)C(F)(F)C(F)(F)F : 1478.4

Next item in the queue.
Recorded mass density of `CC(C)n1cc[n+](C)c1.O=S(=O)([N-]S(=O)(=O)C(F)(F)C(F)(F)F)C(F)(F)C(F)(F)F` , please. 1503.5

----------
Conditions: 293.15 K; 100.9 kPa; Liquid; Vibrating tube method
Numbers after ± are expanded uncertainties.
Property: mass density
Remember to put the unit after the number in your answer.

1) C[n+]1ccn(C(C)(C)C)c1.O=S(=O)([N-]S(=O)(=O)C(F)(F)F)C(F)(F)F : 1451.5 ± 2 kg/m3
2) CC(C)[n+]1ccn(C)c1.O=S(=O)([N-]S(=O)(=O)C(F)(F)F)C(F)(F)F : 1481.9 ± 2 kg/m3
3) CC(C)n1cc[n+](C)c1.O=S(=O)([N-]S(=O)(=O)C(F)(F)C(F)(F)F)C(F)(F)C(F)(F)F : 1556.7 ± 2 kg/m3

Next item in the queue.
Recorded mass density of `C[n+]1ccn(C(C)(C)C)c1.O=S(=O)([N-]S(=O)(=O)C(F)(F)C(F)(F)F)C(F)(F)C(F)(F)F` , please. 1530.8 ± 2 kg/m3
